- Tested on: Candida albicans
- experiment-notes: microbe, parasite or virus in culture
- experimental-parameters: ATCC SC5314, 64 h
- Description: Antifungal activity against Candida albicans ATCC SC5314 assessed as inhibition of fungal growth incubated for 64 hrs by liquid medium dilution method
log10 of MIC50 reference
For clarity, the numbers are log10 values of MIC50 expressed in µg/mL.

Param request: log10 of MIC50 | system Candida albicans | item Cc1c(CN2CCCC(C(=O)NCC(O)(Cn3ccnc3)c3ccc(Cl)cc3Cl)C2)cccc1-c1ccccc1 (stereo not drawn)
-0.30

Others:
Return reported log10 of MIC50 for target or system Candida albicans, item Cc1c(CN2CCC(NCC(O)(Cn3ccnc3)c3ccc(Cl)cc3)CC2)cccc1-c1ccccc1 (stereo not drawn) .
-0.60

State measured log10 of MIC50 of the molecule Cc1c(CN2CCC(CNCC(O)(Cn3cncn3)c3ccc(Cl)cc3)CC2)cccc1-c1ccccc1 (stereo not drawn) with Candida albicans.
-0.30

----------
- Tested on: Candida tropicalis
- experiment-notes: microbe, parasite or virus in culture
- experimental-parameters: ATCC 1369, 64 h
- Description: Antifungal activity against Candida tropicalis ATCC 1369 assessed as inhibition of fungal growth incubated for 64 hrs by liquid medium dilution method
# maps each entry to its MIC50
Respond with the bare value in µg/mL.

Solved cases (6 shown):
Identify measured MIC50 corresponding to Cc1c(CN2CCCC(C(=O)NCC(O)(Cn3cncn3)c3ccc(Cl)cc3Cl)C2)cccc1-c1ccccc1 (centres undefined)
2

For the compound Cc1c(CN2CCCC(C(=O)NCC(O)(Cn3ccnc3)c3ccc(Cl)cc3)C2)cccc1-c1ccccc1 (centres undefined) , report MIC50.
2

For the compound `OC(Cn1cncn1)(Cn1cncn1)c1ccc(F)cc1F` , give its measured MIC50 value.
0.5

Identify measured MIC50 corresponding to O=C(NCC(Cc1ccccc1)Cn1cncn1)C1CCCN(Cc2ccc(-c3ccccc3)cc2)C1 (centres undefined)
1

State its MIC50: Cc1c(CN2CCC(NCC(O)(Cn3ccnc3)c3ccc(Cl)cc3Cl)CC2)cccc1-c1ccccc1 (centres undefined)
0.5

// fetch MIC50 given entry O=C(NCC(Cc1ccccc1)Cn1ccnc1)C1CCCN(Cc2ccc(-c3ccccc3)cc2)C1 (centres undefined)
2

New cases:
Entry Cc1c(CN2CCC(NCC(O)(Cn3cncn3)c3ccc(Cl)cc3Cl)CC2)cccc1-c1ccccc1 (centres undefined) needs its MIC50 filled in; supply it.
2

Name the recorded MIC50 of the compound listed here: Cc1c(CN2CCCC(C(=O)NCC(O)(Cn3ccnc3)c3ccc(Cl)cc3Cl)C2)cccc1-c1ccccc1 (centres undefined)
0.5

Return MIC50 (reported value) for this compound: Cc1c(CN2CCC(NCC(O)(Cn3cncn3)c3ccc(Cl)cc3)CC2)cccc1-c1ccccc1 (centres undefined)
0.25

----------
- target-system: Lanosterol 14-alpha demethylase (Candida albicans (strain SC5314 / ATCC MYA-2876) (Yeast), UniProt P10613)
- Sequence (P10613 whole entry): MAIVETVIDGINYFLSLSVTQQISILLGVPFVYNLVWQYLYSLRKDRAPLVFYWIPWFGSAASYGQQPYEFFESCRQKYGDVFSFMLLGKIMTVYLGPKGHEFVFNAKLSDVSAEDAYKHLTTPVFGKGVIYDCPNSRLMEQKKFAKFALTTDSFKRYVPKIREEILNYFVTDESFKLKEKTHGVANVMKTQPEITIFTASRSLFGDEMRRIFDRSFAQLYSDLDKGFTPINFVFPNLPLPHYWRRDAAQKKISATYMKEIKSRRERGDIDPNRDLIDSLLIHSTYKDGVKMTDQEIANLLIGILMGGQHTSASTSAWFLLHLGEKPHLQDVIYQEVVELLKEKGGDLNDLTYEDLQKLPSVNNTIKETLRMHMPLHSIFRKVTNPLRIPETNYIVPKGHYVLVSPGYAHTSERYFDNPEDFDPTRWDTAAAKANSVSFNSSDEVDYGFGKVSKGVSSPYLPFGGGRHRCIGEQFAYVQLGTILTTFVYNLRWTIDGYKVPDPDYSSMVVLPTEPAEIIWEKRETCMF
recorded-metric: IC50 (nM)
Write down the numeric answer in nM and omit the unit.

Before answering, review these 3 worked examples.
Input Cc1c(CN2CCCC(C(=O)NCC(O)(Cn3cncn3)c3ccc(Cl)cc3)C2)cccc1-c1ccccc1 (centres undefined) , output reported IC50.
256

Write down IC50 measured for item `OC(Cn1cncn1)(Cn1cncn1)c1ccc(F)cc1F`
98

Recall and state the measured IC50 for Cc1c(CN2CCC(NCC(O)(Cn3ccnc3)c3ccc(Cl)cc3Cl)CC2)cccc1-c1ccccc1 (centres undefined) .
157

Next:
Supply reported IC50 belonging to this compound: Cc1c(CN2CCC(NCC(O)(Cn3cncn3)c3ccc(Cl)cc3)CC2)cccc1-c1ccccc1 (centres undefined)
113

----------
// MIC50 lookup, one value per entry
- Tested on: Candida albicans
- experiment-notes: microbe, parasite or virus in culture
- experimental-parameters: CaR, 64 h
- Description: Antifungal activity against fluconazole-resistant Candida albicans CaR assessed as inhibition of fungal growth incubated for 64 hrs by liquid medium dilution method
Answer with a number only, understood to be in µg/mL.

See these solved cases before continuing.
Identify the reported MIC50 for the following entry. Cc1c(CN2CCC(NCC(O)(Cn3ccnc3)c3ccc(Cl)cc3Cl)CC2)cccc1-c1ccccc1 (stereo not given)
4

Please supply the value of reported MIC50 for the item CC(=O)N1CCN(c2ccc(OCC3COC(Cn4ccnc4)(c4ccc(Cl)cc4Cl)O3)cc2)CC1 (stereo not given) [KETOCONAZOLE]
4

New cases:
Output MIC50 of Cc1c(CN2CCC(NCC(O)(Cn3cncn3)c3ccc(Cl)cc3)CC2)cccc1-c1ccccc1 (stereo not given)
2

----------
- Tested on: Candida tropicalis
- experiment-notes: microbe, parasite or virus in culture
- experimental-parameters: ATCC 1369, 64 h
MIC50 values for the compounds below.
Record the value in µg/mL, omitting the unit from your answer.

Example entries begin here.
State MIC50 on Candida tropicalis. Entry: Cc1c(CN2CCC(CNCC(O)(Cn3ccnc3)c3ccc(Cl)cc3)CC2)cccc1-c1ccccc1 (centres undefined)
1

Would you please give the reported MIC50 of CC(=O)N1CCN(c2ccc(OCC3COC(Cn4ccnc4)(c4ccc(Cl)cc4Cl)O3)cc2)CC1 (centres undefined) with Candida tropicalis?
0.25

Print Candida tropicalis MIC50 for Cc1c(CN2CCCC(C(=O)NCC(Cc3ccccc3)Cn3cncn3)C2)cccc1-c1ccccc1 (centres undefined) .
0.5

Would you please give the reported MIC50 of Cc1c(CN2CCC(NCC(O)(Cn3ccnc3)c3ccc(Cl)cc3)CC2)cccc1-c1ccccc1 (centres undefined) with Candida tropicalis?
0.5

State MIC50 on Candida tropicalis. Entry: Cc1c(CN2CCC(CNCC(O)(Cn3ccnc3)c3ccc(Cl)cc3Cl)CC2)cccc1-c1ccccc1 (centres undefined)
2

Others:
Write MIC50 of Cc1c(CN2CCCC(C(=O)NCC(Cc3ccccc3)Cn3ccnc3)C2)cccc1-c1ccccc1 (centres undefined) ; system used: Candida tropicalis
1

State measured MIC50 of the compound Cc1c(CN2CCCC(C(=O)NCC(O)(Cn3cncn3)c3ccc(Cl)cc3)C2)cccc1-c1ccccc1 (centres undefined) with Candida tropicalis.
0.25

Jot down MIC50 (Candida tropicalis) of Cc1c(CN2CCC(CNCC(O)(Cn3cncn3)c3ccc(Cl)cc3Cl)CC2)cccc1-c1ccccc1 (centres undefined) .
2

Name the value of MIC50 reported for Cc1c(CN2CCC(CNCC(O)(Cn3cncn3)c3ccc(Cl)cc3)CC2)cccc1-c1ccccc1 (centres undefined) when tested on Candida tropicalis.
0.5

----------
Recorded MIC50 by entry
- Test system: Nakaseomyces glabratus
- experiment-notes: microbe, parasite or virus in culture
- experimental-parameters: 64 h
- Description: Antifungal activity against Candida glabrata assessed as inhibition of fungal growth incubated for 64 hrs by liquid medium dilution method
The answer should read as a number with its unit following.

Worked examples follow.
Please report MIC50 for the following molecule: Cc1c(CN2CCCC(C(=O)NCC(Cc3ccccc3)Cn3cncn3)C2)cccc1-c1ccccc1 (centres undefined)
0.5 mg/L

Report measured MIC50; entry is Cc1c(CN2CCC(NCC(O)(Cn3cncn3)c3ccc(Cl)cc3Cl)CC2)cccc1-c1ccccc1 (centres undefined)
1 mg/L

Quickly give me recorded MIC50 for `OC(Cn1cncn1)(Cn1cncn1)c1ccc(F)cc1F`
0.5 mg/L

Continuing:
Answer with the recorded MIC50 of O=C(NCC(Cc1ccccc1)Cn1cncn1)C1CCCN(Cc2ccc(-c3ccccc3)cc2)C1 (centres undefined) only.
2 mg/L

----------
# MIC50 listing for each entry below
- System: Cryptococcus neoformans
- experiment-notes: microbe, parasite or virus in culture
- experimental-parameters: ZKCC 2209, 64 h
- Description: Antifungal activity against Cryptococcus neoformans ZKCC 2209 assessed as inhibition of fungal growth incubated for 64 hrs by liquid medium dilution method
# value in mg/L; strip the unit string

Sample answers from the record:
Indicate the recorded MIC50 value for this molecule: O=C(NCC(Cc1ccccc1)Cn1cncn1)C1CCCN(Cc2ccc(-c3ccccc3)cc2)C1 (centres undefined)
2

Assign MIC50 to the following record: Cc1c(CN2CCCC(C(=O)NCC(O)(Cn3ccnc3)c3ccc(Cl)cc3)C2)cccc1-c1ccccc1 (centres undefined)
4

Return reported MIC50. Input molecule: Cc1c(CN2CCC(NCC(O)(Cn3ccnc3)c3ccc(Cl)cc3)CC2)cccc1-c1ccccc1 (centres undefined)
2

Identify the reported MIC50 for the following entry. CC(=O)N1CCN(c2ccc(OCC3COC(Cn4ccnc4)(c4ccc(Cl)cc4Cl)O3)cc2)CC1 (centres undefined)
1

Next:
Return MIC50 for the following molecule: Cc1c(CN2CCCC(C(=O)NCC(O)(Cn3cncn3)c3ccc(Cl)cc3Cl)C2)cccc1-c1ccccc1 (centres undefined)
4

----------
- Test system: Nakaseomyces glabratus
- experiment-notes: microbe, parasite or virus in culture
- experimental-parameters: 64 h
recorded-metric: MIC50
Answer format reminder: number followed by unit.

Provide Nakaseomyces glabratus MIC50 reading for CC(=O)N1CCN(c2ccc(OCC3COC(Cn4ccnc4)(c4ccc(Cl)cc4Cl)O3)cc2)CC1 (centres undefined) .
0.5 µg/mL

Fill in: MIC50 on Nakaseomyces glabratus, entry Cc1c(CN2CCCC(C(=O)NCC(Cc3ccccc3)Cn3ccnc3)C2)cccc1-c1ccccc1 (centres undefined)
2 µg/mL

Answer with MIC50 of Cc1c(CN2CCC(CNCC(O)(Cn3cncn3)c3ccc(Cl)cc3)CC2)cccc1-c1ccccc1 (centres undefined) measured for Nakaseomyces glabratus.
1 µg/mL

Tell me its MIC50 on Nakaseomyces glabratus: Cc1c(CN2CCCC(C(=O)NCC(O)(Cn3ccnc3)c3ccc(Cl)cc3Cl)C2)cccc1-c1ccccc1 (centres undefined)
1 µg/mL

Please indicate recorded MIC50 of Cc1c(CN2CCC(NCC(O)(Cn3ccnc3)c3ccc(Cl)cc3)CC2)cccc1-c1ccccc1 (centres undefined) measured with Nakaseomyces glabratus.
1 µg/mL

Report value only: MIC50, Nakaseomyces glabratus, Cc1c(CN2CCCC(C(=O)NCC(O)(Cn3cncn3)c3ccc(Cl)cc3Cl)C2)cccc1-c1ccccc1 (centres undefined)
0.5 µg/mL

Report measured MIC50 on Nakaseomyces glabratus; entry: Cc1c(CN2CCC(CNCC(O)(Cn3ccnc3)c3ccc(Cl)cc3)CC2)cccc1-c1ccccc1 (centres undefined)
0.5 µg/mL

Jot down MIC50 (Nakaseomyces glabratus) of Cc1c(CN2CCC(NCC(O)(Cn3ccnc3)c3ccc(Cl)cc3Cl)CC2)cccc1-c1ccccc1 (centres undefined) .
0.5 µg/mL

Report MIC50 under test system Nakaseomyces glabratus for Cc1c(CN2CCC(CNCC(O)(Cn3ccnc3)c3ccc(Cl)cc3Cl)CC2)cccc1-c1ccccc1 (centres undefined) .
0.5 µg/mL
